system: SW48 cancer cells; test: In vitro combination study with Compound 1, Cell Titer-Glo (ATP) cell viability, 72 h; assay type: cell-based; details: Table 5 drug combined with Compound 1; 72 h
outcomeMeasure: Call, anti-proliferative effect of combination with Compound 1, SW48

Would you kindly share the measured Call, anti-proliferative effect of combination with Compound 1, SW48 for Nc1ncn([C@@H]2O[C@H](CO)[C@@H](O)[C@H]2O)c(=O)n1 [Azacitidine] ?
Additivity (0.7 to 1.3)

Would you kindly share the measured Call, anti-proliferative effect of combination with Compound 1, SW48 for COC1=CC(c2cc3ccccc3[nH]2)=N/C1=C\c1[nH]c(C)cc1C [Obatoclax] ?
Additivity (0.7 to 1.3)

---

tested on: HCT116 cancer cells; experiment: In vitro combination study with Compound 1, Cell Titer-Glo (ATP) cell viability, 72 h; type: cell-based; settings: DNA damaging agent combined with Compound 1; 72 h
outcomeMeasure: Call, anti-proliferative effect of combination with Compound 1, HCT116

Here is how some molecules turned out for Call, anti-proliferative effect of combination with Compound 1, HCT116.
Would you kindly share the measured Call, anti-proliferative effect of combination with Compound 1, HCT116 for `C[C@H]1CCC/C=C/[C@@H]2C[C@H](O)C[C@H]2[C@H](O)/C=C/C(=O)O1` ?
Additivity (0.7 to 1.3)

Would you kindly share the measured Call, anti-proliferative effect of combination with Compound 1, HCT116 for `Nc1ncn([C@H]2C[C@H](O)[C@@H](CO)O2)c(=O)n1` ?
Synergy (0 to 0.7)

Would you kindly share the measured Call, anti-proliferative effect of combination with Compound 1, HCT116 for `CO[C@@]12[C@H](COC(N)=O)C3=C(C(=O)C(C)=C(N)C3=O)N1C[C@@H]1N[C@@H]12` ?
Synergy (0 to 0.7)

Would you kindly share the measured Call, anti-proliferative effect of combination with Compound 1, HCT116 for `S=P(N1CC1)(N1CC1)N1CC1` ?
Synergy (0 to 0.7)

---
Would you kindly share the measured Call, anti-proliferative effect of combination with Compound 1, HCT116 for `O=C(O)CCCc1ccc(N(CCCl)CCCl)cc1` ?
Additivity (0.7 to 1.3)

---

test system: H460 cancer cells; assay: In vitro combination study with Compound 1, Cell Titer-Glo (ATP) cell viability, 72 h; format: cell-based; conditions: DNA damaging agent combined with Compound 1; 72 h;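 note: Ten-by-ten dose matrices of both drugs alongside single-agent dilutions, luminescence read 72 hours after compound addition, percent activity per well versus vehicle (DMSO) plate controls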
Counter-ions that a name gives are not always drawn.
outcomeMeasure: Call, anti-proliferative effect of combination with Compound 1, H460

Would you kindly share the measured Call, anti-proliferative effect of combination with Compound 1, H460 for COc1cccc2c1C(=O)c1c(O)c3c(c(O)c1C2=O)C[C@@](O)(C(=O)CO)C[C@@H]3O[C@H]1C[C@H](N)[C@H](O)[C@H](C)O1 [Doxorubicin hydrochloride] ?
Synergy (0 to 0.7)

Would you kindly share the measured Call, anti-proliferative effect of combination with Compound 1, H460 for `C[C@H]1CCC/C=C/[C@@H]2C[C@H](O)C[C@H]2[C@H](O)/C=C/C(=O)O1` ?
Additivity (0.7 to 1.3)

Would you kindly share the measured Call, anti-proliferative effect of combination with Compound 1, H460 for CC[C@@]1(O)C(=O)OCc2c1cc1n(c2=O)Cc2cc3c(CN(C)C)c(O)ccc3nc2-1 [Topotecan hydrochloride] ?
Synergy (0 to 0.7)

Would you kindly share the measured Call, anti-proliferative effect of combination with Compound 1, H460 for `Nc1ccn([C@@H]2O[C@H](CO)[C@@H](O)[C@@H]2O)c(=O)n1` ?
Additivity (0.7 to 1.3)

---
Would you kindly share the measured Call, anti-proliferative effect of combination with Compound 1, H460 for `N.N.O=C([O-])C1(C(=O)[O-])CCC1.[Pt+2]` ?
Synergy (0 to 0.7)

Would you kindly share the measured Call, anti-proliferative effect of combination with Compound 1, H460 for `O=C(O)CCCc1ccc(N(CCCl)CCCl)cc1` ?
Additivity (0.7 to 1.3)

Would you kindly share the measured Call, anti-proliferative effect of combination with Compound 1, H460 for `S=P(N1CC1)(N1CC1)N1CC1` ?
Additivity (0.7 to 1.3)

Would you kindly share the measured Call, anti-proliferative effect of combination with Compound 1, H460 for `S=c1nc[nH]c2nc[nH]c12` ?
Additivity (0.7 to 1.3)

Would you kindly share the measured Call, anti-proliferative effect of combination with Compound 1, H460 for COc1cc([C@@H]2c3cc4c(cc3[C@@H](O[C@@H]3O[C@@H]5CO[C@@H](c6cccs6)O[C@H]5[C@H](O)[C@H]3O)[C@H]3COC(=O)[C@H]23)OCO4)cc(OC)c1O [Teniposide] ?
Synergy (0 to 0.7)

Would you kindly share the measured Call, anti-proliferative effect of combination with Compound 1, H460 for C[C@@]1(CO)[C@H](O)CC[C@@]2(C)[C@H]1CC[C@H]1C[C@@H]3C[C@@]12CC[C@]3(O)COC(=O)CN.Cl [Aphidicolin glycinate] ?
Additivity (0.7 to 1.3)

---

system: HCT116 cancer cells; test: In vitro combination study with Compound 1, Cell Titer-Glo (ATP) cell viability, 72 h; assay type: cell-based; conditions: DNA damaging agent combined with Compound 1; 72 h;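 note: combination call from 10×10 dose matrices in duplicate, graded by synergy, with percent activity per well relative to DMSO vehicle controls on the same plate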
Counter-ions that a name gives are not always drawn. *1 amine or outer side, *2 acyl side, *3 side chain or, on linkers, in order; H or OH if unused. Where a SMILES comes first, the peptide text is derived from it. Bridges are numbered along the chain shown (N, C = ends). Roman numbers before positions name the chains, in order. [ ]: non-standard residue; d: D form. Actinocin(9to1) = Cc1c2oc3c(C)ccc(C(=O)[*:1])c3nc-2c(C(=O)[*:2])c(N)c1=O; NMeV = CN[C@H](C(=O)O)C(C)C; Sar = CNCC(=O)O
outcomeMeasure: Call, anti-proliferative effect of combination with Compound 1, HCT116

Here is how some compounds turned out for Call, anti-proliferative effect of combination with Compound 1, HCT116.
Would you kindly share the measured Call, anti-proliferative effect of combination with Compound 1, HCT116 for Cc1c2oc3c(C)ccc(C(=O)N[C@@H]4C(=O)N[C@H](C(C)C)C(=O)N5CCC[C@H]5C(=O)N(C)CC(=O)N(C)[C@@H](C(C)C)C(=O)O[C@@H]4C)c3nc-2c(C(=O)N[C@@H]2C(=O)N[C@H](C(C)C)C(=O)N3CCC[C@H]3C(=O)N(C)CC(=O)N(C)[C@@H](C(C)C)C(=O)O[C@@H]2C)c(N)c1=O [Dactinomycin] (I: T[dV]P[Sar][NMeV] / II: T[dV]P[Sar][NMeV]; ester I:1-I:C, II:1-II:C; linker I:N-II:N via Actinocin(9to1)) ?
Additivity (0.7 to 1.3)

Would you kindly share the measured Call, anti-proliferative effect of combination with Compound 1, HCT116 for `Nc1ccn([C@@H]2O[C@H](CO)[C@@H](O)C2(F)F)c(=O)n1` ?
Additivity (0.7 to 1.3)

Would you kindly share the measured Call, anti-proliferative effect of combination with Compound 1, HCT116 for CC[C@@]1(O)C(=O)OCc2c1cc1n(c2=O)Cc2cc3c(CN(C)C)c(O)ccc3nc2-1 [Topotecan hydrochloride] ?
Synergy (0 to 0.7)

Would you kindly share the measured Call, anti-proliferative effect of combination with Compound 1, HCT116 for N.N.[Cl][Pt][Cl] [Cisplatin] ?
Synergy (0 to 0.7)

Would you kindly share the measured Call, anti-proliferative effect of combination with Compound 1, HCT116 for O=C1c2c(O)ccc(O)c2C(=O)c2c(NCCNCCO)ccc(NCCNCCO)c21 [Mitoxantrone hydrochloride] ?
Synergy (0 to 0.7)

---
Would you kindly share the measured Call, anti-proliferative effect of combination with Compound 1, HCT116 for `Nc1ccn([C@@H]2O[C@H](CO)[C@@H](O)[C@@H]2O)c(=O)n1` ?
Additivity (0.7 to 1.3)

Would you kindly share the measured Call, anti-proliferative effect of combination with Compound 1, HCT116 for `S=c1nc[nH]c2nc[nH]c12` ?
Additivity (0.7 to 1.3)

---

tested on: SW620 cancer cells; test: In vitro combination study with Compound 1, Cell Titer-Glo (ATP) cell viability, 72 h; format: cell-based; details: DNA damaging agent combined with Compound 1; 72 h;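 note: Ten-by-ten dose matrices of both drugs in 384-well plates, luminescent ATP read-out, synergy evaluated against single-agent and DMSO vehicle controls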
Where a name gives a salt, the structure may show the parent alone. *1 amine or outer side, *2 acyl side, *3 side chain or, on linkers, in order; H or OH if unused. Where a SMILES comes first, the peptide text is derived from it. Bridges are numbered along the chain shown (N, C = ends). Roman numbers before positions name the chains, in order. [ ]: non-standard residue; d: D form. Actinocin(9to1) = Cc1c2oc3c(C)ccc(C(=O)[*:1])c3nc-2c(C(=O)[*:2])c(N)c1=O; NMeV = CN[C@H](C(=O)O)C(C)C; Sar = CNCC(=O)O
outcomeMeasure: Call, anti-proliferative effect of combination with Compound 1, SW620

Here is how some compounds turned out for Call, anti-proliferative effect of combination with Compound 1, SW620.
Would you kindly share the measured Call, anti-proliferative effect of combination with Compound 1, SW620 for COc1cccc2c1C(=O)c1c(O)c3c(c(O)c1C2=O)C[C@@](O)(C(=O)CO)C[C@@H]3O[C@H]1C[C@H](N)[C@H](O)[C@H](C)O1 [Doxorubicin hydrochloride] ?
Additivity (0.7 to 1.3)

Would you kindly share the measured Call, anti-proliferative effect of combination with Compound 1, SW620 for `CO[C@@]12[C@H](COC(N)=O)C3=C(C(=O)C(C)=C(N)C3=O)N1C[C@@H]1N[C@@H]12` ?
Synergy (0 to 0.7)

Would you kindly share the measured Call, anti-proliferative effect of combination with Compound 1, SW620 for `C[C@H]1CCC/C=C/[C@@H]2C[C@H](O)C[C@H]2[C@H](O)/C=C/C(=O)O1` ?
Additivity (0.7 to 1.3)

Would you kindly share the measured Call, anti-proliferative effect of combination with Compound 1, SW620 for `CCc1c2c(nc3ccc(O)cc13)-c1cc3c(c(=O)n1C2)COC(=O)[C@]3(O)CC` ?
Synergy (0 to 0.7)

Would you kindly share the measured Call, anti-proliferative effect of combination with Compound 1, SW620 for `N[C@@H](Cc1ccc(N(CCCl)CCCl)cc1)C(=O)O` ?
Synergy (0 to 0.7)

---
Would you kindly share the measured Call, anti-proliferative effect of combination with Compound 1, SW620 for COc1cc([C@@H]2c3cc4c(cc3[C@@H](O[C@@H]3O[C@@H]5CO[C@@H](c6cccs6)O[C@H]5[C@H](O)[C@H]3O)[C@H]3COC(=O)[C@H]23)OCO4)cc(OC)c1O [Teniposide] ?
Synergy (0 to 0.7)

Would you kindly share the measured Call, anti-proliferative effect of combination with Compound 1, SW620 for CC[C@@]1(O)C(=O)OCc2c1cc1n(c2=O)Cc2cc3c(CN(C)C)c(O)ccc3nc2-1 [Topotecan hydrochloride] ?
Synergy (0 to 0.7)

Would you kindly share the measured Call, anti-proliferative effect of combination with Compound 1, SW620 for Cc1c2oc3c(C)ccc(C(=O)N[C@@H]4C(=O)N[C@H](C(C)C)C(=O)N5CCC[C@H]5C(=O)N(C)CC(=O)N(C)[C@@H](C(C)C)C(=O)O[C@@H]4C)c3nc-2c(C(=O)N[C@@H]2C(=O)N[C@H](C(C)C)C(=O)N3CCC[C@H]3C(=O)N(C)CC(=O)N(C)[C@@H](C(C)C)C(=O)O[C@@H]2C)c(N)c1=O [Dactinomycin] (I: T[dV]P[Sar][NMeV] / II: T[dV]P[Sar][NMeV]; ester I:1-I:C, II:1-II:C; linker I:N-II:N via Actinocin(9to1)) ?
Additivity (0.7 to 1.3)

Would you kindly share the measured Call, anti-proliferative effect of combination with Compound 1, SW620 for `Nc1ncn([C@H]2C[C@H](O)[C@@H](CO)O2)c(=O)n1` ?
Additivity (0.7 to 1.3)

Would you kindly share the measured Call, anti-proliferative effect of combination with Compound 1, SW620 for C[C@@]1(CO)[C@H](O)CC[C@@]2(C)[C@H]1CC[C@H]1C[C@@H]3C[C@@]12CC[C@]3(O)COC(=O)CN.Cl [Aphidicolin glycinate] ?
Additivity (0.7 to 1.3)

Would you kindly share the measured Call, anti-proliferative effect of combination with Compound 1, SW620 for N.N.[Cl][Pt][Cl] [Cisplatin] ?
Synergy (0 to 0.7)

Would you kindly share the measured Call, anti-proliferative effect of combination with Compound 1, SW620 for `Nc1ccn([C@@H]2O[C@H](CO)[C@@H](O)[C@@H]2O)c(=O)n1` ?
Synergy (0 to 0.7)
